Study target: Skp2-Cks1 interaction (Homo sapiens, UniProt P61024+Q13309)
Assay remarks: AlphaScreen assay for Skp2-Cks1 interaction
Assay type: binding
Measurement context: AlphaScreen
Measurement label: effect on Skp2-Cks1 interaction (in words)

Molecule: O=C1C=CC(=O)C=C1 [BQ, 1,4-benzoquinone, reference compound]
Result: no effect
//
Molecule: Cc1cc(O)ccc1O [MHQ, methylhydroquinone, reference compound]
Result: no effect

* * *

Study target: SCF^Skp2 (E3) ubiquitination of p27 (Homo sapiens)
Assay remarks: In vitro p27 ubiquitination assay
Format: biochemical
Record form. Attribute: IC50. Fill in for each entry.

Molecule: Cc1cc(O)ccc1O [MHQ, methylhydroquinone, reference compound]
IC50: > 300 µM

Record request: IC50 value, item O=C1C=CC(=O)C=C1 [BQ, 1,4-benzoquinone, reference compound]
> 300 µM

* * *

Kindly state pIC50 for each of the entries shown.
Study target: Skp2-Cks1 interaction (Homo sapiens, UniProt P61024+Q13309)
Assay remarks: AlphaScreen assay for Skp2-Cks1 interaction
Type: binding
One number for each entry, as −log10 of the molar value.

Compound: O=C1C=CC(=O)C=C1 [BQ, 1,4-benzoquinone, reference compound]
pIC50: 3.20

Query compound follows.
What does the data say about its pIC50? Entry: Cc1cc(O)ccc1O [MHQ, methylhydroquinone, reference compound]
3.36

* * *

Study target: Skp2-Cks1 interaction (Homo sapiens, UniProt P61024+Q13309)
Assay remarks: AlphaScreen assay for Skp2-Cks1 interaction
Assay type: binding
Measurement context: read-out: Inhibition of Skp2-Cks1 IC50; AlphaScreen; GST-Skp2/Skp1 20 nM, Cks1 200 nM
For each record, write down the corresponding pIC50.
One number for each entry, as −log10 of the molar value.

Below, 4 compounds whose answers are already recorded.
Compound: CCCCC(=O)c1ccc(OC)c(C)c1 [Compound A857]
pIC50: 2.96
--
Compound: CCCCC(=O)c1ccc(OC)c(C)c1 [Compound E857]
pIC50: 2.08
--
Compound: CCCCC(=O)c1ccc(OC)c(C)c1 [Compound Q857]
pIC50: 4.15
--
Compound: O=C(OCC12CC3CC(CC(C3)C1)C2)c1ccc(NCc2cc(O)ccc2O)cc1
pIC50: 4.44

Here's the next entry for you.
Name the reported pIC50 value associated with the compound `COC(=O)c1ccc(CCc2cc(O)ccc2O)cc1`
4.12

* * *

Study target: SCF^Skp2 (E3) ubiquitination of p27 (Homo sapiens, UniProt Q13309)
Assay remarks: In vitro p27 ubiquitination assay
Assay type: biochemical
Measurement context: read-out: p27 Ub IC50; in vitro p27 ubiquitination
pIC50: −log10 of the molar value.
Measurement label: pIC50

Examples with answers:
Compound: COC(=O)c1ccc(CCc2cc(O)ccc2O)cc1
pIC50: ~4.10
//
Compound: CCCCC(=O)c1ccc(OC)c(C)c1 [Compound A857]
pIC50: < 3.52
//
Compound: O=C(OCC12CC3CC(CC(C3)C1)C2)c1ccc(NCc2cc(O)ccc2O)cc1
pIC50: ~4.52
//
Compound: CCCCC(=O)c1ccc(OC)c(C)c1 [Compound Q857]
pIC50: ~4.82

Here is another compound to look at.
Dear colleague, I am looking for the recorded pIC50 of the following compound: CCCCC(=O)c1ccc(OC)c(C)c1 [Compound E857]
< 3.52
